target: JAK1 (Homo sapiens, UniProt P23458); construct: purchased Invitrogen; test: JAK1 enzyme inhibition test (LANCE method); format: biochemical; details: 1 μM test compound; read-out: JAK1 enzyme inhibitory activity (%, 1 μM)
Sequence (P23458 whole entry): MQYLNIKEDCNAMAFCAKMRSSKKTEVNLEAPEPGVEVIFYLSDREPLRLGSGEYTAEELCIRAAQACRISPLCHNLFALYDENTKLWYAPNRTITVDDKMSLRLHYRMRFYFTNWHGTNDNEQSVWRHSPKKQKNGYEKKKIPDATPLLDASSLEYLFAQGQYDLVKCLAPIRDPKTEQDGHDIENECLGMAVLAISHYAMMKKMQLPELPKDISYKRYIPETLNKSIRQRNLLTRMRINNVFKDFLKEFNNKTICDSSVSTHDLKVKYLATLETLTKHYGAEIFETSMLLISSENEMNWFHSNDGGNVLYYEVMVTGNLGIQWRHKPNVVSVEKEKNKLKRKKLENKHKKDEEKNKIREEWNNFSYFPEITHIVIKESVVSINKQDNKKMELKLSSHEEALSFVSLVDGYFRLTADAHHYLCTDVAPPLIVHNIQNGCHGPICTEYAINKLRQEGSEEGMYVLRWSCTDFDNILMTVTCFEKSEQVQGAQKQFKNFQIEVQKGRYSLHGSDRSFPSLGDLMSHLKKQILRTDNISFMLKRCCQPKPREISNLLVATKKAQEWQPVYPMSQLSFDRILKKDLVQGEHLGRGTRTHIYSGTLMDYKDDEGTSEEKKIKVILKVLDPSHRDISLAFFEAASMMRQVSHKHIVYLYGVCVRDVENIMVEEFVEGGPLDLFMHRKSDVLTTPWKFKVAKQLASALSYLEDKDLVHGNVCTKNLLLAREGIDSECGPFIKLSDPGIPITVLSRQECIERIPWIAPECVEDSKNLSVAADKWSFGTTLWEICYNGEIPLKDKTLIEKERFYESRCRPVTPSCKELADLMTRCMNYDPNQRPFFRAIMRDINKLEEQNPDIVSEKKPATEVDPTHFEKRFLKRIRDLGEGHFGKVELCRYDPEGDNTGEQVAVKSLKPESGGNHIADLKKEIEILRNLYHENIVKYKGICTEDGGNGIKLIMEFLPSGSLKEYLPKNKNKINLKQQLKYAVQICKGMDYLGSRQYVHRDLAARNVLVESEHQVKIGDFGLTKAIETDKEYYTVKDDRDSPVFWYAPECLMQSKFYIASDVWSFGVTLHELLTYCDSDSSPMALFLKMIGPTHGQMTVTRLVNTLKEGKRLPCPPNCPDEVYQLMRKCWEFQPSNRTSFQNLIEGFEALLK
result_type: inhibition at 1 µM (%)

Use these answered entries as a reference point.
* CC(C)[C@H](C)n1cc(-c2cc(N3CC[C@H](O)C3)n(C)n2)c2[nH]nc(N)c2c1=O | 97
* COC1(c2cc(-c3cn([C@@H](C)C(C)C)c(=O)c4c(N)n[nH]c34)nn2C)CN(C(=O)C(C)C)C1 | 83
* CC(C)[C@H](C)n1cc(-c2cc(CN3CCCC3=O)n(C)n2)c2[nH]nc(N)c2c1=O | 96
* C[C@@H](C1CC1)n1cc(-c2cc(N3CCS(=O)(=O)C(C)(C)C3)n(C)n2)c2[nH]nc(N)c2c1=O | 100
* Cn1nc(-c2cn(C(C3CC3)C3CC3)c(=O)c3c(N)n[nH]c23)cc1N1CCOCC1 | 99

1: CC(C)[C@H](C)n1cc(-c2cc(N3CCC(C)(O)C3)n(C)n2)c2[nH]nc(N)c2c1=O (stereo partly shown)
2: CC(C)[C@H](C)n1cc(-c2cc(N3CCS(=O)(=O)CC3)n(CC(F)(F)F)n2)c2[nH]nc(N)c2c1=O
Q: Which entry has a larger number for inhibition at 1 µM, 1 or 2 ? Your choice should be expressed through its label.
A: 1
(1: 96%, 2: 47%)
